Recorded GI50 for the following compounds
# Test system: Hs-578T
# TEST NAME: NCI tumour cell line growth inhibition, 48 h
Calls of active or inactive are those of the source. No stated cut-off is given here; in the data, active = GI50 up to about 1.1 µM and inactive = higher.
PROPERTY NAME: GI50

- COMPOUND: "N=C(N)NS(=O)(=O)c1ccc(NC(=O)c2ccc3nc4ccccc4c(Nc4ccc(S(N)(=O)=O)cc4)c3c2)cc1"
  PROPERTY NAME: "GI50"
  REPORTED: "> 100 µM (inactive)"
- COMPOUND: "N=C(N)NC(CC(=O)O)c1ccccc1 (stereo unspecified)"
  PROPERTY NAME: "GI50"
  REPORTED: "> 100 µM (inactive)"
- COMPOUND: "Nc1nc(Cl)c(N)c(NC23CC4CC(CC(C4)C2)C3)n1"
  PROPERTY NAME: "GI50"
  REPORTED: "4.4 µM (inactive)"
- COMPOUND: "CO/N=C1/C(n2[nH]c(=O)n(-c3ccccc3)c2=O)C2C=CC1n1c(=O)n(-c3ccccc3)c(=O)n12 (stereo unspecified)"
  PROPERTY NAME: "GI50"
  REPORTED: "> 100 µM (inactive)"
- COMPOUND: "COc1cc(/C=N/c2ccc(Oc3ccc(Cl)cc3)c(Cl)c2)cc(OC)c1OC"
  PROPERTY NAME: "GI50"
  REPORTED: "15.8 µM (inactive)"
- COMPOUND: "N#CCCC1(CCC#N)CCCCCCC(CCC#N)(CCC#N)C(=O)C1=O"
  PROPERTY NAME: "GI50"
  REPORTED: "> 100 µM (inactive)"
- COMPOUND: "O=[N+]([O-])c1cccc2nccc(NCCN3CCOCC3)c12"
  PROPERTY NAME: "GI50"
  REPORTED: "15.9 µM (inactive)"
- COMPOUND: "CC(/C=C/c1ccc([N+](=O)[O-])o1)=N/N1CC(CN2CCOCC2)OC1=O (stereo unspecified)"
  PROPERTY NAME: "GI50"
  REPORTED: "44.8 µM (inactive)"
- COMPOUND: "N=c1oc2ccc(Cl)cc2cc1C(=O)NC1CCCCC1"
  PROPERTY NAME: "GI50"
  REPORTED: "30.9 µM (inactive)"
- COMPOUND: "COC(=O)C(=O)C(C(=O)C(=O)Nc1ccc(Cl)c(Cl)c1)c1nc2ccc(C(=O)c3ccccc3)cc2nc1O (stereo unspecified)"
  PROPERTY NAME: "GI50"
  REPORTED: "22.1 µM (inactive)"
- COMPOUND: "O=S(=O)(O)c1ccc(/N=N/c2c(O)ccc3ccccc23)cc1"
  PROPERTY NAME: "GI50"
  REPORTED: "> 100 µM (inactive)"
- COMPOUND: "CC(=O)Nc1cc(Cl)cc(Cl)c1O"
  PROPERTY NAME: "GI50"
  REPORTED: "> 100 µM (inactive)"
- COMPOUND: "CN(C)CCCNC(=O)c1c(O)c2ccccc2n(C)c1=O"
  PROPERTY NAME: "GI50"
  REPORTED: "> 100 µM (inactive)"
- COMPOUND: "C[n+]1cn(-c2ccc([N+](=O)[O-])cn2)c2ccccc21"
  PROPERTY NAME: "GI50"
  REPORTED: "> 100 µM (inactive)"
- COMPOUND: "C/C(=N\\Nc1nc2ccccc2[nH]1)c1ccc2ccccc2n1"
  PROPERTY NAME: "GI50"
  REPORTED: "10.8 µM (inactive)"
- COMPOUND: "Nc1ncc2c(n1)-c1ccccc1OC2N1CCCCC1 (stereo unspecified)"
  PROPERTY NAME: "GI50"
  REPORTED: "> 100 µM (inactive)"
- COMPOUND: "COc1ccc(-c2cn3c(nc4ccccc43)c(/C=C/c3cccs3)n2)cc1"
  PROPERTY NAME: "GI50"
  REPORTED: "28.4 µM (inactive)"
- COMPOUND: "C[C@]12CC[C@H](O)CC1=CC[C@@H]1[C@@H]2CC[C@]2(C)C(=O)[C@@H](N3CCOCC3)C[C@@H]12"
  PROPERTY NAME: "GI50"
  REPORTED: "90.4 µM (inactive)"
- COMPOUND: "CC1CC(=O)N2CCCNC2=C1C#N (stereo unspecified)"
  PROPERTY NAME: "GI50"
  REPORTED: "> 100 µM (inactive)"
- COMPOUND: "O=C(NCCN(CCNC(=O)c1cccc(=O)n1O)CCNC(=O)c1cccc(=O)n1O)c1cccc(=O)n1O"
  PROPERTY NAME: "GI50"
  REPORTED: "> 100 µM (inactive)"
- COMPOUND: "O=C(/C=C/c1ccc(Cl)cc1)Oc1ccc(C=C2CCC/C(=C\\c3ccc(OC(=O)/C=C/c4ccc(Cl)cc4)cc3)C2=O)cc1"
  PROPERTY NAME: "GI50"
  REPORTED: "> 100 µM (inactive)"
